assay: Displacement of [3H]SCH 23390 from dopamine D1 receptor in lamb striatum membrane after 1 hr
compounds and their reported pKd
pKd field: float, defined as -log10 of concentration (mol/L).

Compound: CN1C[C@H](C(=O)N[C@@H](Cc2ccc([N+](=O)[O-])cc2)C(=O)N[C@@H](Cc2ccc(F)cc2)C(=O)N2CCCC(C(N)=O)C2)C=C2c3cccc4[nH]cc(c34)C[C@H]21 (stereo not given in full)
Reading: 6.15
--
Compound: CC(C)[C@H](NC(=O)[C@@H]1C=C2c3cccc4[nH]cc(c34)C[C@H]2N(C)C1)C(=O)N[C@@H](Cc1ccc([N+](=O)[O-])cc1)C(=O)N1CCC[C@H]1C(N)=O
Reading: 5.11
--
Compound: CC(C)[C@H](NC(=O)[C@H](CCC1CCCCC1)NC(=O)[C@@H]1C=C2c3cccc4[nH]cc(c34)C[C@H]2N(C)C1)C(=O)N1CCC[C@H]1C(N)=O
Reading: 5.92
--
Compound: CC(C)[C@H](NC(=O)[C@@H]1C=C2c3cccc4[nH]cc(c34)C[C@H]2N(C)C1)C(=O)N[C@@H](Cc1ccc(F)cc1)C(=O)N1CCC[C@H]1C(N)=O
Reading: 6.22

Now let's try a different one.
# lookup: pKd of CC(C)[C@H](NC(=O)[C@H]1C=C2c3cccc4[nH]cc(c34)C[C@H]2N(C)C1)C(=O)N[C@@H](Cc1ccc([N+](=O)[O-])cc1)C(=O)N1CCC[C@H]1C(N)=O
6.15
